From: paper PMC6602471

Kindly state binding signal for each of the entries shown.
SYSTEM TESTED: ELK1 (Homo sapiens, UniProt P19419 1-428)
Sequence: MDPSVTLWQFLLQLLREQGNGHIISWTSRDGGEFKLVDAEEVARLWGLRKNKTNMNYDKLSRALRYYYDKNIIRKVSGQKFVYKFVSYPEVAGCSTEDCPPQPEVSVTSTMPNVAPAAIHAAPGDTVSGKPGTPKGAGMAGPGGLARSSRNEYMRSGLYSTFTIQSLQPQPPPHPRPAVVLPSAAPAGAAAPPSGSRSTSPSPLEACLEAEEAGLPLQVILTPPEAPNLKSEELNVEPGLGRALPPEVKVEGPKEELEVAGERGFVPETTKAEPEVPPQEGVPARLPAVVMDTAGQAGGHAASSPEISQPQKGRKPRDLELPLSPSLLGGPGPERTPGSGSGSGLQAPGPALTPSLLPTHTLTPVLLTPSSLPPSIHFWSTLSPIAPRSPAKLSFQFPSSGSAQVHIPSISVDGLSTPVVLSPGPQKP
METHOD NOTES: custom PBM; custom protein-binding microarray; buffer, salt, pH and temperature not stated; high values mean tight binding
PROTOCOL CONDITIONS: dsDNA, one strand shown
In all, about 1,300 sequences were measured (“log fluorescence intensity”: median about 8.9, highest 2% from about 13 on). What follows is part of a selection rich in the highest values, with near analogues and random picks from the rest.

// solved cases for binding signal follow
- INPUT SEQUENCE: "TCCAGCTACCAGCTCCACCCACTTCAGGCCTTGTAGGTCTTGATTCGCTTGACGCTGCTG"
  SYSTEM TESTED: "ELK1 (Homo sapiens, UniProt P19419 1-428)"
  RESULT: "8.99 log fluorescence intensity"
- INPUT SEQUENCE: "GGAAAAAGCCCCAGGGTAACACCGGAAGTGGGCTTAGTCTTGATTCGCTTGACGCTGCTG"
  SYSTEM TESTED: "ELK1 (Homo sapiens, UniProt P19419 1-428)"
  RESULT: "10.8 log fluorescence intensity"
- INPUT SEQUENCE: "CGGAAGTGTCGTAAACGTCGGATATCCGGTTCATCTGTCTTGATTCGCTTGACGCTGCTG"
  SYSTEM TESTED: "ELK1 (Homo sapiens, UniProt P19419 1-428)"
  RESULT: "12.6 log fluorescence intensity"

For each listed entry, give its binding signal.
1. CGGAAGTGTCGTAAACTTCGGATATCCGGTTCTTCTGTCTTGATTCGCTTGACGCTGCTG
2. CGGAAGTGTCGTAAACGTCGGATATCCGGTTCCTCTGTCTTGATTCGCTTGACGCTGCTG

["12.3 log fluorescence intensity", "12.5 log fluorescence intensity"]

---

SYSTEM TESTED: ELK1 (Homo sapiens, UniProt P19419 1-428)
Sequence: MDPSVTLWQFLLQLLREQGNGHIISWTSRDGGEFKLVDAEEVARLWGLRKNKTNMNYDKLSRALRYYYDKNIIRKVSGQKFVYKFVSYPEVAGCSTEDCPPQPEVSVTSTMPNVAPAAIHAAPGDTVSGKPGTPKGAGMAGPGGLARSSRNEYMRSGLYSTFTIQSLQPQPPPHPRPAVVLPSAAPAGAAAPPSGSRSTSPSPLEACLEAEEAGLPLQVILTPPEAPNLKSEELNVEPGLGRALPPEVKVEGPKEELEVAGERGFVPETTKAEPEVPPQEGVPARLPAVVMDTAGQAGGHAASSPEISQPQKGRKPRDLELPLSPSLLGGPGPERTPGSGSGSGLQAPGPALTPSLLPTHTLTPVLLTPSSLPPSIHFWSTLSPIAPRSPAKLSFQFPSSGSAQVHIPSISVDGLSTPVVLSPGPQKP
METHOD NOTES: custom PBM; custom protein-binding microarray; buffer, salt, pH and temperature not stated; high values mean tight binding
PROTOCOL CONDITIONS: dsDNA, one strand shown
In all, about 1,300 sequences were measured (“log fluorescence intensity”: median about 8.9, highest 2% from about 13 on). The sample holds the highest values, similar sequences and a random draw of the others, so the mix is not that of the screen.
I'd appreciate it if you could supply binding signal values for the items below.

- INPUT SEQUENCE: "CGGAAGTGTCGTGAACGTCGGATATCCGGTTCTTCTGTCTTGATTCGCTTGACGCTGCTG"
  MEASURE NAME: "binding signal"
  RESULT: "11.8 log fluorescence intensity"
- INPUT SEQUENCE: "CGGACGTGTCGTAAACGTCGGATATCCGGTTCTTCTGTCTTGATTCGCTTGACGCTGCTG"
  MEASURE NAME: "binding signal"
  RESULT: "12.2 log fluorescence intensity"
- INPUT SEQUENCE: "CCCAATTTTTACAGTAATGTAGCACGCGTAACTCCTGTCTTGATTCGCTTGACGCTGCTG"
  MEASURE NAME: "binding signal"
  RESULT: "8.98 log fluorescence intensity"
- INPUT SEQUENCE: "GCTGATGCGGTGCATACCCCACCGGATGTGACCCCGGTCTTGATTCGCTTGACGCTGCTG"
  MEASURE NAME: "binding signal"
  RESULT: "10.2 log fluorescence intensity"
- INPUT SEQUENCE: "CGGAAGGGTCGTAAACGTCGGATATCCGGTTCTTCTGTCTTGATTCGCTTGACGCTGCTG"
  MEASURE NAME: "binding signal"
  RESULT: "12.1 log fluorescence intensity"

Hi, could you look up binding signal for each item in my list?
1. GATGAATTTCTGCCCTTATTCGCACGTGCCATAACAGTCTTGATTCGCTTGACGCTGCTG
2. TAAAGGGAAGACGGGTGTGGTAGTTCCGGGTATTAAGTCTTGATTCGCTTGACGCTGCTG
3. CGGAACTGTCGTAAACGTCGGATATCCGGTTCTTCTGTCTTGATTCGCTTGACGCTGCTG
4. CTGGGACTTGGCCCAACTCTGCCACGTGGGTCGTTTGTCTTGATTCGCTTGACGCTGCTG
5. GGAAAAAGGCACAGGGTAACACCGGAAGTGGGCTTAGTCTTGATTCGCTTGACGCTGCTG
6. CGGAAGTGTCGCAAACGTCGGATATCCGGTTCTTCTGTCTTGATTCGCTTGACGCTGCTG

1: 8.9 log fluorescence intensity; 2: 11.2 log fluorescence intensity; 3: 12.5 log fluorescence intensity; 4: 8.95 log fluorescence intensity; 5: 11 log fluorescence intensity; 6: 12.5 log fluorescence intensity

// each sequence listed below needs its binding signal
1. CGGAAGTGTCGTATACGTCGGATATCCGGTTCTTCTGTCTTGATTCGCTTGACGCTGCTG
2. CTGGGACTTGACCCAACTCTGCCACGTGGGGCGTTTGTCTTGATTCGCTTGACGCTGCTG
3. GGAAAAAGGCCCAGGGTAACCCCGGAAGTGGGCTTAGTCTTGATTCGCTTGACGCTGCTG

["12.5 log fluorescence intensity", "8.94 log fluorescence intensity", "10.5 log fluorescence intensity"]

// each listed sequence needs a value for binding signal
1. CAGCATAGGACTTCTTCCCTGAAGCAGTTGATAACCGTCTTGATTCGCTTGACGCTGCTG
2. GGAAAAAGGCCCAGGGTAACACCGGAAGCGGGCTTAGTCTTGATTCGCTTGACGCTGCTG
3. CGGAAGTGTCGGAAACGTCGGATATCCGGTTCTTCTGTCTTGATTCGCTTGACGCTGCTG
4. TGTCGGGTAAGGAAATGTAGATCACGTGAATGAAAAGTCTTGATTCGCTTGACGCTGCTG
5. TCCGGCTACCAGCTCCACCCACTTCAGTCCTTGTAGGTCTTGATTCGCTTGACGCTGCTG
6. CGGAAGTGTGGTAAACGTCGGATATCCGGTTCTTCTGTCTTGATTCGCTTGACGCTGCTG

8.98 log fluorescence intensity
10.5 log fluorescence intensity
13.5 log fluorescence intensity
8.91 log fluorescence intensity
9.06 log fluorescence intensity
12 log fluorescence intensity

Could you tell me binding signal for each of these sequences? They are listed below.
1. TAAAGGGAACACGGTTGTGGTAGTTCCGGGTATTAAGTCTTGATTCGCTTGACGCTGCTG
2. CTGGGACTTGACCCAAATCTGCCACGTGGGTCGTTTGTCTTGATTCGCTTGACGCTGCTG
3. CGGAAGTGTCGTAGACGTCGGATATCCGGTTCTTCTGTCTTGATTCGCTTGACGCTGCTG
4. CACAATTTTTACAGTAATGTAGCATGCGTAACTCCTGTCTTGATTCGCTTGACGCTGCTG

11.2 log fluorescence intensity
9 log fluorescence intensity
12.3 log fluorescence intensity
8.94 log fluorescence intensity

Need binding signal for each of these sequences.
1. CGGATGTGTCGTAAACGTCGGATATCCGGTTCTTCTGTCTTGATTCGCTTGACGCTGCTG
2. CGGAAGTGTCCTAAACGTCGGATATCCGGTTCTTCTGTCTTGATTCGCTTGACGCTGCTG
3. TCCGGCTACCAGTTCCACCCACTTCAGGCCTTGTAGGTCTTGATTCGCTTGACGCTGCTG
4. GGAAAAAGGCCCAGGGTTACACCGGAAGTGGGCTTAGTCTTGATTCGCTTGACGCTGCTG
5. GATTAATTTCTGCCATTATTCGCACGTGCCATAACAGTCTTGATTCGCTTGACGCTGCTG
6. CGGAAGTATCGTAAACGTCGGATATCCGGTTCTTCTGTCTTGATTCGCTTGACGCTGCTG
7. CGGAAATGTCGTAAACGTCGGATATCCGGTTCTTCTGTCTTGATTCGCTTGACGCTGCTG

["12.2 log fluorescence intensity", "12.4 log fluorescence intensity", "9.18 log fluorescence intensity", "11 log fluorescence intensity", "8.92 log fluorescence intensity", "12 log fluorescence intensity", "12.6 log fluorescence intensity"]

// each listed sequence needs a value for binding signal
1. CGGAAGTGTTGTAAACGTCGGATATCCGGTTCTTCTGTCTTGATTCGCTTGACGCTGCTG
2. GCTGCTGGGGTGCATACCCCACCGGATGTGACCCCGGTCTTGATTCGCTTGACGCTGCTG
3. GGAAAAAGGCCCAGGGTACCACCGGAAGTGGGCTTAGTCTTGATTCGCTTGACGCTGCTG
4. GGAAAGAGGCCCAGGGTAACACCGGAAGTGGGCTTAGTCTTGATTCGCTTGACGCTGCTG
5. GCTGCTGCGGTGCATACCCCACCGGATGTGACCTCGGTCTTGATTCGCTTGACGCTGCTG
6. GTGTATAGGATCCCATCCAACACACGTATTAAAATGGTCTTGATTCGCTTGACGCTGCTG

1: 12 log fluorescence intensity; 2: 9.94 log fluorescence intensity; 3: 11.1 log fluorescence intensity; 4: 10.8 log fluorescence intensity; 5: 10.1 log fluorescence intensity; 6: 9.05 log fluorescence intensity

Find the measured binding signal: item TCCGGCTACAAGCTCCACCCACTTCAGGCCTTGTAGGTCTTGATTCGCTTGACGCTGCTG , target or system ELK1 (Homo sapiens, UniProt P19419 1-428).
8.93 log fluorescence intensity
